- systemName: CYP3A4 (Homo sapiens, UniProt P08684)
- Construct: from tissue; host or cells: human liver microsomes (pooled in the time-dependent assay)
- Sequence (P08684 whole entry): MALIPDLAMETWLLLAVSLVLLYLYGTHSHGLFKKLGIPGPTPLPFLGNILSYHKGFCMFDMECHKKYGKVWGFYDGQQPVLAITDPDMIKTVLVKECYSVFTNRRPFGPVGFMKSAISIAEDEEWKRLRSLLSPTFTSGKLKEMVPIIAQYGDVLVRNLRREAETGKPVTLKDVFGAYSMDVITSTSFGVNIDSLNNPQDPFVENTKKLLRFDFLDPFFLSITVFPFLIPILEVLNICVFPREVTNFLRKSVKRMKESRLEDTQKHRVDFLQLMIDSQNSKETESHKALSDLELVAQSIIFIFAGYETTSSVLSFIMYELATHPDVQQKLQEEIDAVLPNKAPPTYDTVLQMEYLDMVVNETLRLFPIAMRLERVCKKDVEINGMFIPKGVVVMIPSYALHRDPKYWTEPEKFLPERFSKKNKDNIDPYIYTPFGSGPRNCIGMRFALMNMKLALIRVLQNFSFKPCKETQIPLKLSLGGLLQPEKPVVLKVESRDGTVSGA
- assayNotes: time dependent inhibition of CYP450 in pooled human microsomes
- Format: in vitro ADME
- conditionSet: pre-incubation 30 min (NADPH); read-out: CYP3A4-T IC50
- Experimental: Time dependent inhibition: An assessment of the time-dependent Inhibitory potential of test compounds against the principal human cytochrome P450 isozymes was carried out using standard methods (Grimm et al, “The Conduct of in Vitro Studies to Address Time-Dependent Inhibition of Drug-Metabolizing Enzymes: A Perspective of the Pharmaceutical Research and Manufacturers of America”, Drug Metabolism and Disposition, 37 (7): 1355, 2009). […] LC-MS/MS was used to quantify metabolite formation. […]
pIC50: −log10 of the molar value.
measuredParameter: pIC50

>>> assayresult("CO[C@H]1CC[C@H](NC(=O)c2nccc(-c3cncn3C)n2)CC1 [Compound 148]")
"< 4.52"
